- assay-comment: Drug metabolism in rat liver microsomes at 5 uM after 15 mins
- Format: ADME, Microsome
- experimental-conditions: read-out: Drug metabolism
property-name: metabolised at 0.25 h, 5 µM (%)

A selection of reference data follows.
structure-notation	property-name	value
Cc1ncccc1Oc1ccc(-c2ccn(CC3CC3)c(=O)c2C#N)cc1Cl	metabolised at 0.25 h, 5 µM	22
CC(C)CCn1ccc(-c2ccc(Oc3ccncc3)cc2)c(C#N)c1=O	metabolised at 0.25 h, 5 µM	41
CCCCn1ccc(-c2ccc(Oc3ccc(C)nc3C)c(Cl)c2)c(C#N)c1=O	metabolised at 0.25 h, 5 µM	50
CCCCn1ccc(-c2ccc(Oc3ccc(C)nc3C)cc2)c(C#N)c1=O	metabolised at 0.25 h, 5 µM	60
CCCCn1ccc(-c2ccc(Oc3ccnc(C)c3)c(F)c2)c(C#N)c1=O	metabolised at 0.25 h, 5 µM	50

(P) CCCCn1ccc(-c2ccc(Oc3ccnc(C)c3)c(Cl)c2)c(C#N)c1=O
(Q) COc1ccc(-c2ccn(CCC(C)C)c(=O)c2C#N)cc1Cl
Two entries are listed, P and Q . Which one carries the higher metabolised at 0.25 h, 5 µM? // output: label of the selected item
Q
(Q: 99%, P: 51%)
